- System: MOLT-4 leukemia
- Experiment: NCI tumour cell line growth inhibition, 48 h
Property: TGI

These recorded examples may help you get a feel for the data.
Compound | TGI
COc1cccc(/C=C\c2ccnc3ccccc23)c1 | > 10 µM
CCCCCCCN(CCCCCCC)CC(O)c1cc2ccccc2c2cc(Br)ccc12 (centres undefined) | > 100 µM
COc1ccc(-c2nc3sccn3c2-c2ccnc(NCCCNS(=O)(=O)c3ccc(F)cc3)n2)cc1 | 7.67 µM
Cc1c/c(=N/NC(=O)c2ccncc2)n2nc(N)sc2n1 | > 100 µM
O=C(c1ccccc1)N1CCC(Nc2nccs2)O1 (centres undefined) | > 10 µM
O=C1/C(=C/c2ccccc2[N+](=O)[O-])COc2ccc(O)c(O)c21 | > 21.8 µM
N=c1oc2ccc(Cl)cc2cc1C(N)=O | > 100 µM
COc1cc(NC(C)CCCN2C(=O)c3ccccc3C2=O)c2ncccc2c1OC (centres undefined) | > 100 µM

Attention now shifts to the item below.
Read the entry CCc1ccc(/C=C/C(=O)C2CN(CC)CCC2(O)/C=C/c2ccc(CC)cc2)cc1 (centres undefined) and write its reported TGI. 6.03 µM
